src = paper PMC7911889

Target: SARS-CoV-2 3CL^pro (Severe acute respiratory syndrome coronavirus 2, UniProt P0DTD1)
Assay type: cell-based
Conditions: read-out: EC50, SARS-CoV-2 3CLpro luciferase complementation assay
measurement_type: EC50 (µM)
Write the number in µM without appending the unit.

Query: Recorded EC50 of CC(NC(=O)[C@H](Cc1ccccc1)NC(=O)OCc1ccccc1)C(=O)CF (stereo partly shown) , please.
Result: 26.3
